# Test system: RT112 human bladder cancer cells
# EXPERIMENT SUMMARY: In-vitro morphological cell viability screen, RT112
# Assay type: cell-based
# EXPERIMENTAL SETUP: RT112, dose 5.0 mM, Ham's F12 + 10% FCS, morphological appearance

# SUBSTANCE, Cell Viability Human Bladder Cancer
rows = [
    ("PEGPRP [VII, hexapeptide with arginine substituted by glutamic acid]", "+ + +"),
    ("PRRPGP [VI, linear end-capped hexapeptide PRRPGP, one arginine transposed]", "+ + +"),
    ("PEGPEP [IX, hexapeptide with both arginines substituted by glutamic acid]", "+ + +"),
    ("Ac-PRGPRP-NH2 [THR1, linear N'-capped PRGPRP-amide hexapeptide]", "- - -"),
    ("PRGPEP [VIII, hexapeptide with arginine substituted by glutamic acid]", "+ + +"),
]

---

# Tested on: H460 Human Non-small Cell Lung Cancer
# EXPERIMENTAL SETUP: H460, dose 200 μM
OBSERVED PROPERTY: Cell Viability Human Non-small Cell Lung Cancer

# SUBSTANCE, TEST SYSTEM, TEST VALUE
data = [
    ("Cyc-[AAAGGGPRGPRPGGGAAA] (head to tail) [X]", "H460 Human Non-small Cell Lung Cancer", "+ + +"),
    ("Cyc-[FPPRRPGPVKLALKLALK] (head to tail) [THR53C]", "H460 Human Non-small Cell Lung Cancer", "+ + +"),
    ("Linear FPPRGPRPVKLALKLALK [XIV]", "H460 Human Non-small Cell Lung Cancer", "+ + +"),
    ("Cyc-GGGGGGPRGPRPGGGGGG] (head to tail) [XII]", "H460 Human Non-small Cell Lung Cancer", "+ + +"),
    ("Cyc-[GGGGGGPRGPRPGGGGGG] (head to tail) [XI]", "H460 Human Non-small Cell Lung Cancer", "+ + +"),
    ("Cyc-[PR(Me)GPRPVALKLALKLAL] (head to tail) [XX]", "H460 Human Non-small Cell Lung Cancer", "+ +/-"),
    ("Linear PRGPRPVALKLALKLAL [XV]", "H460 Human Non-small Cell Lung Cancer", "+ + +"),
    ("Cyc-[AAGPGGPRGPRPGGPGAA] (head to tail) [XIII]", "H460 Human Non-small Cell Lung Cancer", "+ + +"),
    ("Cyc-[PRGPR(Me)PVALKLALKLAL] (head to tail) [XXI]", "H460 Human Non-small Cell Lung Cancer", "++ +"),
]
